PROTOCOL_DETAILS: Compound Solubility Assay (kinetic solubility)
Assay type: physicochemical
REPORTED_CONDITIONS: simulated gastric fluid, kinetic from dmso stock; kinetic solubility, SGF buffer pH 1.2, 37° C., 24 hours; read-out: KS1
OBSERVABLE: solubility kinetic at 24 h
I'd appreciate it if you wrote the number followed by its unit.

{"MOLECULE": "Cc1nc2c(F)cc(-c3nc(Nc4ccc(CN5CCO[C@](C)(CC(=O)N(C)C)C5)cn4)ncc3F)cc2n1C(C)C", "EXPERIMENTAL_VALUE": "196 µM"}
{"MOLECULE": "Cc1nc2c(F)cc(-c3nc(Nc4ccc(CN5CCO[C@@](C)(CCN(C)C)C5)cn4)ncc3F)cc2n1C(C)C", "EXPERIMENTAL_VALUE": "200 µM"}
{"MOLECULE": "COC(=O)N1CC[C@@]2(CN(Cc3ccc(Nc4ncc(F)c(-c5cc(F)c6nc(C)n(C(C)C)c6c5)n4)nc3)CCO2)C1", "EXPERIMENTAL_VALUE": "200 µM"}
{"MOLECULE": "Cc1nc2c(F)cc(-c3nc(Nc4ccc(CN5CCO[C@](C)(CCN6CCOCC6)C5)cn4)ncc3F)cc2n1C(C)C", "EXPERIMENTAL_VALUE": "200 µM"}
{"MOLECULE": "CCC[C@@]1(C)CN(Cc2ccc(Nc3ncc(F)c(-c4cc(F)c5nc(C)n(C(C)C)c5c4)n3)nc2)CCN1", "EXPERIMENTAL_VALUE": "193 µM"}
{"MOLECULE": "CCN1CCN(Cc2ccc(Nc3ncc(F)c(-c4cc(F)c5nc(C)n(C(C)C)c5c4)n3)nc2)CC1 [Abemaciclib MS, Abemaciclib, reference compound]", "EXPERIMENTAL_VALUE": "193 µM"}
{"MOLECULE": "Cc1nc2c(F)cc(-c3nc(Nc4ccc(CN5CCO[C@@](C)(C[C@H](C)N(C)C)C5)cn4)ncc3F)cc2n1C(C)C", "EXPERIMENTAL_VALUE": "198 µM"}

### Prompt Using the record for Cc1nc2c(F)cc(-c3nc(Nc4ccc(CN5CCO[C@@]6(CCN(S(C)(=O)=O)C6)C5)cn4)ncc3F)cc2n1C(C)C , report its solubility kinetic at 24 h.
### Response 200 µM

These data points were gathered from patent US12486280B2.
